Values from ChEMBL document CHEMBL3885861

- Organism: Rattus norvegicus
- TEST SUMMARY: Open TG-GATES - Regimen: Daily Repeat
- Format: toxicity, organism-based, Sprague-Dawley
- Parameters: regimen Daily Repeat, gender Male, age 6 weeks
- CONDITION SET: in vivo, po, 0 mg/kg, […], tissue Plasma, route gavage, dose level Control, time 7 day
QUANTITY KIND: GLC (mg/dL)
Numeric only. Scale: mg/dL

Example results:
>>> value("CC[C@@H](CO)NCCN[C@@H](CC)CO")
198
>>> value("CCN(CC)N=O")
194.8
>>> value("CC(N)=O [ACETAMIDE]")
195.2

In the following, a different molecule is considered.
Sure, the documented GLC for `CC(=O)Nc1ccc2c(c1)Cc1ccccc1-2` is 201.2

* * *

- Species on record: Rattus norvegicus
- TEST SUMMARY: Open TG-GATES - Regimen: Single
- Assay type: toxicity, organism-based, Sprague-Dawley
- Set-up: regimen Single, gender Male, age 6 weeks
- CONDITION SET: in vivo, po, 0 mg/kg, 9 h, tissue Plasma, route gavage, dose level Control
// reported TBIL for each item listed
Numeric only. Scale: mg/dL

>>> value("CC[C@@H](CO)NCCN[C@@H](CC)CO [ETHAMBUTOL]")
0.024

Sure, the documented TBIL for CC(=O)N1CCN(c2ccc(OCC3COC(Cn4ccnc4)(c4ccc(Cl)cc4Cl)O3)cc2)CC1 (stereo not drawn) [KETOCONAZOLE] is 0.026

Sure, the documented TBIL for CC(C)Cc1ccc(C(C)C(=O)O)cc1 (stereo not drawn) [IBUPROFEN] is 0.026

* * *

- Species on record: Rattus norvegicus
- TEST SUMMARY: Open TG-GATES - Regimen: Daily Repeat
- Type: toxicity, organism-based, Sprague-Dawley
- Design: regimen Daily Repeat, gender Male, age 6 weeks
- CONDITION SET: in vivo, po, 0 mg/kg, […], tissue Blood, route gavage, dose level Control, time 14 day
QUANTITY KIND: Plat (x10_4/uL)
Numeric only. Scale: x10_4/uL

>>> value("CC(C)Cc1ccc(C(C)C(=O)O)cc1 (stereo not given)")
115.8
>>> value("CC(N)=O [ACETAMIDE]")
119.7
>>> value("CC(CCc1ccccc1)NCC(O)c1ccc(O)c(C(N)=O)c1 (stereo not given)")
104.1
>>> value("O=C(O)COc1nn(Cc2ccccc2)c2ccccc12")
122.8

In the following, a different compound is considered.
Sure, the documented Plat for `CCN(CC)N=O` is 124.2
